# STUDY TARGET: UniProt P00734
# TEST DESCRIPTION: SPR binding of porphyrins to immobilized thrombin
# Design: human α‐thrombin (HCT‐0020); purchased CellSystems GmbH HCT-0020
# CONDITIONS USED: read-out: KD2 (porphyrin binding to thrombin)
ASSAY ENDPOINT: pKd
Give bare numbers, as −log10 of the molar value.

Any idea what pKd was measured for C=CC1=C(C)c2cc3[nH]c(cc4nc(cc5[nH]c(cc1n2)c(C)c5CCC(=O)O)C(CCC(=O)O)=C4C)c(C)c3C=C [protoporphyrin IX] ?
5.66

---

# TEST DESCRIPTION: UV/vis spectroscopic interaction studies of PZ-derived peptides with heme
# Assay type: binding
# CONDITIONS USED: peptide 10 µM, heme 0.4-40 µM
No end group written: not given here. Cys(S-Me) = S-methylated cysteine
ASSAY ENDPOINT: heme binding on peptide level

IKITHVHVHMRYD [Peptide 4, PZ-derived peptide around H206/H208/H210, positions 202 - 214] :: bound heme
FWRRYKGGS [Peptide 1] :: bound heme
C(Me)SLLHRNITVKTYFNRT ({Cys(S-Me)}-SLLHRNITVKTYFNRT) [Peptide 3, PZ-derived peptide around H183/Y191 with methylated cysteine, positions 179 - 195] :: bound heme
